- Read-out: Broad substrate specificity ATP-binding cassette transporter ABCG2 (Homo sapiens) (UniProt Q9UNQ0)
- Sequence (Q9UNQ0 whole entry, looked up): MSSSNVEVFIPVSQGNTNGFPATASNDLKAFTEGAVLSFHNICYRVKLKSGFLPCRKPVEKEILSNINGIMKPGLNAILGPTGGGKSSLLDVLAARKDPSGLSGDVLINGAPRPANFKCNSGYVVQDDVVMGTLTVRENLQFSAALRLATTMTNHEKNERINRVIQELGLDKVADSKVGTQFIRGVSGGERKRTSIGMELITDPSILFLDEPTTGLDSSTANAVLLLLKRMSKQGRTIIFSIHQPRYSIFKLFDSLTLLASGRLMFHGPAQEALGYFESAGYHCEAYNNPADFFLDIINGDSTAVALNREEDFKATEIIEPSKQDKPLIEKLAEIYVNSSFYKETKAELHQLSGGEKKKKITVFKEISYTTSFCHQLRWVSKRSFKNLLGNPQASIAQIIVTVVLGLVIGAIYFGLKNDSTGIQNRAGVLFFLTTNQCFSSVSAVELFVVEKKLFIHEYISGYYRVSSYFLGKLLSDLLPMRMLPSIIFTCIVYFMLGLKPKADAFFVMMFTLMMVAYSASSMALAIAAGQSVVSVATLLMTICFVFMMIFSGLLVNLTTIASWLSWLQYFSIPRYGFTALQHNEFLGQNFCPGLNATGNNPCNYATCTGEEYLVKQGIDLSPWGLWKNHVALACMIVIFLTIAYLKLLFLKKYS
- Protocol Description: LTEA_HepaRG_ABCG2: Life Technologies and Expression Analysis (LTEA) Assay for ABC Transporter (ABCG2) using HepaRG (AID 2283465)
- Setup Conditions: mRNA level, 48 h; actives raise or lower the signal
Calls of active or inactive are those of the source. Rule for the calls: active = hit-call score of the fitted dose curve at least 0.9, where 1 is the maximum; inactive = score below 0.9.
Outcomes: active, inactive

>>> print(df.to_string())
                                   compound  assigned_category
0  CC(C)Oc1cc(-n2nc(C(C)(C)C)oc2=O)c(Cl)cc1Cl             active
1        Fc1ccc(Oc2ccnc3cc(Cl)cc(Cl)c23)cc1             active
2         CCCCNC(=O)n1c(NC(=O)OC)nc2ccccc21           inactive
3    COc1ccc(C(c2ccc(OC)cc2)C(Cl)(Cl)Cl)cc1           inactive
4  CC(Oc1ccc(Cl)cc1Cl)C(=O)O (stereo not drawn)           inactive
5               O=C(Nc1ccccc1)Nc1ccnc(Cl)c1             active
6  CCCCC(CC)COC(=O)c1ccccc1C(=O)OCC(CC)CCCC (stereo not drawn)           inactive
7                      CCNc1nc(Cl)nc(NCC)n1           inactive

====

- Study System: Transcription factor Sp1 (Homo sapiens) (UniProt P08047)
- Sequence (P08047 whole entry, looked up): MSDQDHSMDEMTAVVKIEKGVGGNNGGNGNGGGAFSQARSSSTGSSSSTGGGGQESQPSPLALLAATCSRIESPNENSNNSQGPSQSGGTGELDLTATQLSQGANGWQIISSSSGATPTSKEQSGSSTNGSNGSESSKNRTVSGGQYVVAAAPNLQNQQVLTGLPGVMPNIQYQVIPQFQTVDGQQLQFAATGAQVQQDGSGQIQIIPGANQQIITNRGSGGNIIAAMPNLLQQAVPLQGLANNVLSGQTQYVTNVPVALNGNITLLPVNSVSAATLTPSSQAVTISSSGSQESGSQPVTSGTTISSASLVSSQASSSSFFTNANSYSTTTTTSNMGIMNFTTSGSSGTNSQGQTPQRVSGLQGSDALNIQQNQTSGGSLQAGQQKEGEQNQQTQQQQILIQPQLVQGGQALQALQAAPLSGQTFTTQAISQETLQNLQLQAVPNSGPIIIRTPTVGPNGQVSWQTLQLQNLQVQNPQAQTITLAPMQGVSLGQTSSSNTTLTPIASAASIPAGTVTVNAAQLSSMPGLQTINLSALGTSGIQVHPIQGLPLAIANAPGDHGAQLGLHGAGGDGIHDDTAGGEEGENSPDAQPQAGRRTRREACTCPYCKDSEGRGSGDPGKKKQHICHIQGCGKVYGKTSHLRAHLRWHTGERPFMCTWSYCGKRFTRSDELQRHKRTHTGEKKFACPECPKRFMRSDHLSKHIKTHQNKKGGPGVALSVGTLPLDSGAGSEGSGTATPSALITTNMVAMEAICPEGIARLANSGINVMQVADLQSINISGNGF
- Protocol Description: ATG_Sp1_CIS: Attagene CIS-FACTORIAL HepG2 Assay for human Specificity Protein 1 (Sp1) (AID 2282961)
- Setup Conditions: HepG2 Sp1 cis-reporter transcription, actives raise or lower the signal
Active and inactive are the calls of the source. The calls were made as follows: active = hit-call score of the fitted dose curve at least 0.9, where 1 is the maximum; inactive = score below 0.9.
Outcomes: active, inactive

In [3]: df
Out[3]:
                                   compound                              study_system  assigned_category
0  Cc1ccc(-c2c(Cl)nc(C#N)n2S(=O)(=O)N(C)C)cc1  Transcription factor Sp1 (Homo sapiens) (UniProt P08047)             active
1                                  CNC(=S)S  Transcription factor Sp1 (Homo sapiens) (UniProt P08047)           inactive
2      CCOP(=S)(OCC)SCn1c(=O)oc2cc(Cl)ccc21  Transcription factor Sp1 (Homo sapiens) (UniProt P08047)           inactive
3                      CNC(=O)ON=CC(C)(C)SC  Transcription factor Sp1 (Homo sapiens) (UniProt P08047)           inactive
4  Cc1c(F)c(F)c(COC(=O)C2C(/C=C(\Cl)C(F)(F)F)C2(C)C)c(F)c1F (stereo not given)  Transcription factor Sp1 (Homo sapiens) (UniProt P08047)           inactive

====

- Read-out: xenobiotic metabolism (CYP1A2), CYP1A2 (gene 1544)
- Protocol Description: CLD_CYP1A2_24hr: CellzDirect (CLD) Gene Expression Assay for xenobiotic metabolism (CYP1A2) at 24 hours (AID 2283683)
Records with an inconclusive call do not appear. Calls of active or inactive are those of the source. How the source made its calls: active means hit-call score of the fitted dose curve at least 0.9, where 1 is the maximum; inconclusive means response in the unintended direction; inactive means score below 0.9.
Measurement Kind: AC50

In [3]: df
Out[3]:
                                   molecule            result
0  CCOC(=O)C(Cl)Cc1cc(-n2nc(C)n(C(F)F)c2=O)c(F)cc1Cl (stereo unspecified)          inactive
1  N#CC(CCc1ccc(Cl)cc1)(Cn1cncn1)c1ccccc1 (stereo unspecified)  1.24 µM (active)
2  CCON=C(CC)C1=C(O)CC(c2c(C)cc(C)cc2C)CC1=O (stereo unspecified)          inactive
3  CC(C)(C)c1ccc(CSc2cnn(C(C)(C)C)c(=O)c2Cl)cc1          inactive
4  COc1cnc(OC)n2nc(NS(=O)(=O)c3c(OCC(F)F)cccc3C(F)(F)F)nc12          inactive
5            COP(=S)(OC)Oc1nc(Cl)c(Cl)cc1Cl  4.43 µM (active)

====

- Read-out: Pro-epidermal growth factor (Homo sapiens)
- Protocol Description: LTEA_HepaRG_EGF: Life Technologies and Expression Analysis (LTEA) Assay for Epidermal growth factor (EGF) using HepaRG (AID 2283489)
- Setup Conditions: mRNA level, 48 h; actives raise or lower the signal
- Method: LTEA_HepaRG is a cell based, multiplexed-readout assay that uses HepaRG, a human liver cell line, with measurements taken at 48 hours after chemical dosing on a 96-well plate.LTEA_HepaRG_EGF is one of 102 assay component(s) measured in the LTEA HepaRG cell culture assay. It is a marker of Cell proliferation, survival, death.Data from the assay component LTEA_HepaRG_EGF was analyzed into 1 endpoint. […]
Activity calls are given as the source filed them. How the source made its calls: active means hit-call score of the fitted dose curve at least 0.9, where 1 is the maximum; inactive means score below 0.9.
Outcomes: 1 = active, 0 = inactive

                                   compound  assigned_category
0  CCOc1cc(Oc2ccc(C(F)(F)F)cc2Cl)ccc1[N+](=O)[O-]                  1
1  COC(=O)N(OC)c1ccccc1COc1ccn(-c2ccc(Cl)cc2)n1                  1
2  CCOC(=O)C(Cl)Cc1cc(-n2nc(C)n(C(F)F)c2=O)c(F)cc1Cl (configuration not stated)                  0
3                O=C(O)COc1nc(Cl)c(Cl)cc1Cl                  0
4   COP(N)(=O)SC (configuration not stated)                  0
5  COc1cnc(OC)n2nc(NS(=O)(=O)c3c(OCC(F)F)cccc3C(F)(F)F)nc12                  0
6              CON(C)C(=O)Nc1ccc(Cl)c(Cl)c1                  0

====

- Read-out: Heat shock 70 kDa protein 1 (HSPA1A), gene 3303
- Protocol Description: LTEA_HepaRG_HSPA1A: Life Technologies and Expression Analysis (LTEA) Assay for Heat shock 70 kDa protein 1 (HSPA1A) using HepaRG (AID 2283502)
- Setup Conditions: mRNA level, 48 h; actives raise or lower the signal
- Experimental: LTEA_HepaRG is a cell based, multiplexed-readout assay that uses HepaRG, a human liver cell line, with measurements taken at 48 hours after chemical dosing on a 96-well plate.LTEA_HepaRG_HSPA1A is one of 102 assay component(s) measured in the LTEA HepaRG cell culture assay. It is a marker of Oxidative Stress.Data from the assay component LTEA_HepaRG_HSPA1A was analyzed into 1 endpoint. […]
Activity calls are given as the source filed them. The calls were made as follows: active = hit-call score of the fitted dose curve at least 0.9, where 1 is the maximum; inactive = score below 0.9.
Outcomes: T (active), F (inactive)

                                    molecule  assigned_category
 0  CS/C(C)=N/OC(=O)N(C)SN(C)C(=O)O/N=C(\C)SC                  F
 1      CCOP(=S)(OCC)SCn1c(=O)oc2cc(Cl)ccc21                  F
 2                      CCNc1nc(Cl)nc(NCC)n1                  F
 3  N#Cc1nn(-c2c(Cl)cc(C(F)(F)F)cc2Cl)c(N)c1S(=O)C(F)(F)F (configuration not stated)                  T
 4  CCOC(=O)C(Cl)Cc1cc(-n2nc(C)n(C(F)F)c2=O)c(F)cc1Cl (configuration not stated)                  F
 5        Fc1ccc(Oc2ccnc3cc(Cl)cc(Cl)c23)cc1                  F
 6  COC(=O)C(C)Oc1ccc(Oc2ccc(Cl)cc2Cl)cc1 (configuration not stated)                  F
 7               O=C(Nc1ccccc1)Nc1ccnc(Cl)c1                  T
 8   COP(N)(=O)SC (configuration not stated)                  F
 9                     Cc1cc(Cl)ccc1OCC(=O)O                  F
10              CCCCOC(=O)c1ccccc1C(=O)OCCCC                  F
11  Cc1ccc(-c2c(Cl)nc(C#N)n2S(=O)(=O)N(C)C)cc1                  F

====

- Protocol Description: ATG_Oct_MLP_CIS: Attagene CIS-FACTORIAL HepG2 Assay for human Octamer-Binding Transcription Factor (Oct) (AID 2282993)
- Setup Conditions: HepG2 Attagene cis-factorial Oct reporter, mRNA; actives raise or lower the signal
- Description: ATG_CIS is a cell-based, multiplexed-readout assay that uses HepG2, a human liver cell line, with measurements taken at 24 hours after chemical dosing in a 24-well plate.ATG_Oct_MLP_CIS is one of 52 assay component(s) measured or calculated from the ATG_CIS assay. […] This assay endpoint, ATG_Oct_MLP_CIS, was analyzed with bidirectional fitting relative to DMSO as the negative control and baseline of activity. […]
Activity calls are given as the source filed them. The calls were made as follows: active = hit-call score of the fitted dose curve at least 0.9, where 1 is the maximum; inactive = score below 0.9.
Outcomes: active, inactive

In [3]: df
Out[3]:
                                   molecule  assigned_category
0        Fc1ccc(Oc2ccnc3cc(Cl)cc(Cl)c23)cc1           inactive
1                   CCNc1nc(Cl)nc(NC(C)C)n1           inactive
2  COc1nc(C)nc(NC(=O)NS(=O)(=O)c2ccccc2CCC(F)(F)F)n1           inactive
3  CC(C)(C)c1ccc(CSc2cnn(C(C)(C)C)c(=O)c2Cl)cc1             active
4  CCOc1cc(Oc2ccc(C(F)(F)F)cc2Cl)ccc1[N+](=O)[O-]             active
5  CCCCC(CC)COC(=O)c1ccccc1C(=O)OCC(CC)CCCC (centres undefined)           inactive
6  CCc1nn(C)c(C(=O)NCc2ccc(C(C)(C)C)cc2)c1Cl             active
7  C#CCOS(=O)OC1CCCCC1Oc1ccc(C(C)(C)C)cc1 (centres undefined)             active
8                      CCNc1nc(Cl)nc(NCC)n1           inactive

Every entry's value here was drawn from PubChem BioAssay (EPA / NIEHS).
